Attribution: ChEMBL document CHEMBL1137427

# test.target: Coagulation factor VII/tissue factor (Homo sapiens) (UniProt P08709+P13726)
# conditions: Plasma
# Description: Anticoagulant potency in human plasma as measured by prothrombin time
observation.type: 2PT (µM)

Solved entries (count: 3):
N=C(N)c1ccc2[nH]c(-c3cccc(-c4cc(CNC(=O)CO)ccc4O)c3O)cc2c1
0.9
N=C(N)c1ccc2[nH]c(-c3cccc(-c4cc(CNC(=O)N5CCOCC5)ccc4O)c3O)cc2c1
2
N=C(N)c1ccc2[nH]c(-c3cc(F)cc(-c4cc(CNC(N)=O)ccc4O)c3O)nc2c1
2.5

A = Cc1cc(-c2nc3cc(C(=N)N)ccc3[nH]2)c(O)c(-c2cc(CNC(N)=O)ccc2O)c1
B = CCCCCC(=O)NCc1ccc(O)c(-c2cccc(-c3cc4cc(C(=N)N)ccc4[nH]3)c2O)c1
C = CN(C)CCCC(=O)NCc1ccc(O)c(-c2cccc(-c3cc4cc(C(=N)N)ccc4[nH]3)c2O)c1
IN: Sort low-to-high on 2PT, please. List the labels in the requested order.
OUT: C, B, A
(C: 0.9 µM, B: 1.4 µM, A: 2 µM)
